- measured-on: JNK3 (Homo sapiens, UniProt P53779)
- Sequence (P53779 whole entry, species assumed): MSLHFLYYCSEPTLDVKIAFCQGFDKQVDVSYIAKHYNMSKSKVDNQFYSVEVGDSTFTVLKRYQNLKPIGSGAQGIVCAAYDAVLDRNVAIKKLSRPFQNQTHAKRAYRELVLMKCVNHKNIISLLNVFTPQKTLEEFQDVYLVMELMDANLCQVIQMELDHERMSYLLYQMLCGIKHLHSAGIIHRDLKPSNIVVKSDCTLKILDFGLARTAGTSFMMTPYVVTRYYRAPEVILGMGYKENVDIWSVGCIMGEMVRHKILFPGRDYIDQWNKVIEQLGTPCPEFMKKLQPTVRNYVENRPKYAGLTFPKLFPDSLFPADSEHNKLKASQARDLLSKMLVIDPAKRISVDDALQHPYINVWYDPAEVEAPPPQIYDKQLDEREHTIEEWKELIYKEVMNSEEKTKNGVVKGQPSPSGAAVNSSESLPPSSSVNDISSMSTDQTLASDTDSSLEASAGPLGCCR
- experiment-description: Kinase profiling JNK3
- Assay type: biochemical
- assay-conditions: 100 micromolar inhibitor concentration; 100 is no change
Item-by-item account of residual kinase activity, JNK3
property-label: residual kinase activity, JNK3

| molecule | property-label | experimental-value |
| --- | --- | --- |
| CC(=O)Nc1ccccc1C(=O)Nc1nc2ccc(O)cc2s1 [Compound 08-39] | residual kinase activity, JNK3 | 53 |
| O=C(Nc1nc2ccc(O)cc2s1)c1cccnc1 [Compound 08-44] | residual kinase activity, JNK3 | 64 |
| CC(=O)Nc1cccc(C(=O)Nc2nc3ccc(O)cc3s2)c1 [Compound 03-58] | residual kinase activity, JNK3 | 51 |
| COc1ccc2sc(NC(=O)c3ccc(NC(C)=O)cc3)nc2c1 [MS:LY-2-77] | residual kinase activity, JNK3 | 88 |
| O=C(Nc1nc2cc(O)ccc2s1)c1cccnc1 [Compound 03-33] | residual kinase activity, JNK3 | 76 |

====

Item-by-item account of remaining activity at 100 µM
- measured-on: EPH-B4 (Homo sapiens, UniProt P54760)
- Sequence (P54760 16-987, species assumed): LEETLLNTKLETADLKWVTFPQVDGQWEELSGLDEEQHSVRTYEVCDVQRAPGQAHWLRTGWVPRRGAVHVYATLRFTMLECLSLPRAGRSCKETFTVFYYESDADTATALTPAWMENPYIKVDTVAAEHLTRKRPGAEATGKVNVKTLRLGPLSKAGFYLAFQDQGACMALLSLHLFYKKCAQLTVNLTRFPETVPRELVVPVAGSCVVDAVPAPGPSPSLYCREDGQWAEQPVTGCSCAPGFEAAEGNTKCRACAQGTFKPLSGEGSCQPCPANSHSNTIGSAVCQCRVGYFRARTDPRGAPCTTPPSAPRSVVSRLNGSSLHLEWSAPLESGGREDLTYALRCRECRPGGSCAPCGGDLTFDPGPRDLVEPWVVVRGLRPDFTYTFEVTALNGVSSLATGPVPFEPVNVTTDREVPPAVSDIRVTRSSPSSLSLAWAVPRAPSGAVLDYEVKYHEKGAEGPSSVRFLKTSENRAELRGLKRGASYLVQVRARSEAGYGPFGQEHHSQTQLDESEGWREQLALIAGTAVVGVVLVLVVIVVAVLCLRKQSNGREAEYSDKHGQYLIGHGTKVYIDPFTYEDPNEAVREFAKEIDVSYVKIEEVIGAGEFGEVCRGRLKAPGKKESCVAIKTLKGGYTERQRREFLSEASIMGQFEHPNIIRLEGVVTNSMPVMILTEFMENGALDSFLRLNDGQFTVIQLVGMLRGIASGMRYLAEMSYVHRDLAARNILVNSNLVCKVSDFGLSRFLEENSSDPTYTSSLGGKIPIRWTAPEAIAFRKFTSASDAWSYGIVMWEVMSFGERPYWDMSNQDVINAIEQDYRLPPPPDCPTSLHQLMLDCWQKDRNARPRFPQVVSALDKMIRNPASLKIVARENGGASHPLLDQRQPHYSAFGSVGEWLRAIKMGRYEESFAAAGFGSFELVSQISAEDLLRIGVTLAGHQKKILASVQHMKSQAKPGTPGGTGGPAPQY
- experiment-description: Kinase profiling EPH-B4
- Type: biochemical
- assay-conditions: 100 micromolar inhibitor concentration; 100 is no change; read-out: residual kinase activity, EPH-B4

| cpd-smiles | remaining activity at 100 µM [%] |
| --- | --- |
| CC(=O)Nc1nc2ccc(C#N)cc2s1 | 62 |
| CC(=O)Nc1nc2ccc(O)cc2s1 | 98 |
| CC(=O)Nc1nc2ccc(C(F)(F)F)cc2s1 | 55 |
| CC(=O)Nc1nc2cc(F)ccc2s1 | 112 |
| COc1ccc2sc(NC(C)=O)nc2c1 | 98 |
| CC(=O)Nc1nc2cc(C(F)(F)F)ccc2s1 | 101 |

====

- measured-on: CDK2-Cyclin A (Homo sapiens, UniProt P24941)
- experiment-description: Kinase profiling CDK2-Cyclin A
- Type: biochemical
- assay-conditions: 100 micromolar inhibitor concentration; 100 is no change
Item-by-item account of residual kinase activity, CDK2-Cyclin A

| molecule | residual kinase activity, CDK2-Cyclin A |
| --- | --- |
| CC(=O)Nc1nc2cc(C)ccc2s1 [Compound 03-76] | 72 |
| O=C(Nc1nc2ccc(O)cc2s1)c1ccncc1 [Compound 08-42] | 72 |
| O=C(Nc1nc2ccc(O)cc2s1)c1ccccc1 [Compound 03-60] | 78 |
| O=C(Nc1nc2ccc(O)cc2s1)c1cccnc1 [Compound 08-44] | 72 |
| CC(=O)Nc1nc2ccccc2s1 [Compound 03-32] | 76 |
| O=C(Nc1nc2cc(O)ccc2s1)c1cccnc1 [Compound 03-33] | 92 |
| O=C(Nc1nc2cc(O)ccc2s1)c1ccccn1 [Compound 03-13] | 91 |
| O=C(Nc1nc2ccc(O)cc2s1)c1ccccn1 [Compound 03-12] | 87 |
| O=C(Nc1nc2cc(O)ccc2s1)c1ccncc1 [Compound 03-11] | 98 |

====

Item-by-item account of residual kinase activity, ROCK 2
- measured-on: ROCK 2 (Homo sapiens, UniProt O75116)
- Sequence (O75116 whole entry, species assumed): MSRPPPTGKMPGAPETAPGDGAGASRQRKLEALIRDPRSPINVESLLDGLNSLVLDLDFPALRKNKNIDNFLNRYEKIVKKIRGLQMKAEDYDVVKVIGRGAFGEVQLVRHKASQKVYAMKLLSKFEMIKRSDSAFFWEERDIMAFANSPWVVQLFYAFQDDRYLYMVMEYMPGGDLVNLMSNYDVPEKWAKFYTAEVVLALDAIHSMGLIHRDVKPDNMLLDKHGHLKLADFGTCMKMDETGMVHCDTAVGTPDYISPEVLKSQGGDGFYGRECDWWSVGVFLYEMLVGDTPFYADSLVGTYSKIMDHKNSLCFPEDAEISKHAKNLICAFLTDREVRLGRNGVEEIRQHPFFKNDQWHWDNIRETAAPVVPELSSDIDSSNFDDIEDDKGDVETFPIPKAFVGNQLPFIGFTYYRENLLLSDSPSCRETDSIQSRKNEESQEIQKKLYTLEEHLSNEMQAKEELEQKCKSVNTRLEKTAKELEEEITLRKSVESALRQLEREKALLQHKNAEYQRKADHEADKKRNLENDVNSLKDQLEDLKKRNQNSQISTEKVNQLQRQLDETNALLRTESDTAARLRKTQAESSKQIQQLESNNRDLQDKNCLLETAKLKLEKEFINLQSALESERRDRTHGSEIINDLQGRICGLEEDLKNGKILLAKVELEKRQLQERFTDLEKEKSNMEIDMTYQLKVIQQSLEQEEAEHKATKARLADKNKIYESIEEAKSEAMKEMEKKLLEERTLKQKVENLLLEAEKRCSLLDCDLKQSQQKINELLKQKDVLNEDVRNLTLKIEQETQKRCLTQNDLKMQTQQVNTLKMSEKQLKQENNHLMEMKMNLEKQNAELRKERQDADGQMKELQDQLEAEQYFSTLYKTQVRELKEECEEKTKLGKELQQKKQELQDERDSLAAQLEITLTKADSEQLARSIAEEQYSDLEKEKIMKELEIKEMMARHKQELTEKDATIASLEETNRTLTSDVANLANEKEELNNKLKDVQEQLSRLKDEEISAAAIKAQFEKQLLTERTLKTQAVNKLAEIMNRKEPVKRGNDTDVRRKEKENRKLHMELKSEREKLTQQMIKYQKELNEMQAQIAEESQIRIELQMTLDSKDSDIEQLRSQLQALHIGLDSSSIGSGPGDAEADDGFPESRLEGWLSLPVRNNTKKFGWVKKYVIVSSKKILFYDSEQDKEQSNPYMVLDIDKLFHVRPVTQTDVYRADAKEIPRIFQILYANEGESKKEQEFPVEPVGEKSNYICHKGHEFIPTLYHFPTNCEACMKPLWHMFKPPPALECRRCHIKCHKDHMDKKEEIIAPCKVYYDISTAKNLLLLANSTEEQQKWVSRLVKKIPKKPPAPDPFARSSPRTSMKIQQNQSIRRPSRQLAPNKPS
- experiment-description: Kinase profiling ROCK 2
- Format: biochemical
- assay-conditions: 100 micromolar inhibitor concentration; 100 is no change

| molecule | residual kinase activity, ROCK 2 |
| --- | --- |
| O=C(Nc1nc2cc(O)ccc2s1)c1ccncc1 [Compound 03-11] | 80 |
| CC(=O)Nc1nc2ccc(F)cc2s1 [Compound 03-94] | 70 |
| COc1ccc2sc(NC(=O)c3ccc(NC(C)=O)cc3)nc2c1 [MS:LY-2-77] | 96 |
| COc1ccc2nc(NC(=O)c3ccccc3)sc2c1 [Compound 03-98] | 66 |
| O=C(Nc1nc2cc(O)ccc2s1)c1ccccc1 [Compound 03-102] | 47 |

====

- measured-on: PRAK (Homo sapiens, UniProt Q8IW41)
- Sequence (Q8IW41 whole entry, species assumed): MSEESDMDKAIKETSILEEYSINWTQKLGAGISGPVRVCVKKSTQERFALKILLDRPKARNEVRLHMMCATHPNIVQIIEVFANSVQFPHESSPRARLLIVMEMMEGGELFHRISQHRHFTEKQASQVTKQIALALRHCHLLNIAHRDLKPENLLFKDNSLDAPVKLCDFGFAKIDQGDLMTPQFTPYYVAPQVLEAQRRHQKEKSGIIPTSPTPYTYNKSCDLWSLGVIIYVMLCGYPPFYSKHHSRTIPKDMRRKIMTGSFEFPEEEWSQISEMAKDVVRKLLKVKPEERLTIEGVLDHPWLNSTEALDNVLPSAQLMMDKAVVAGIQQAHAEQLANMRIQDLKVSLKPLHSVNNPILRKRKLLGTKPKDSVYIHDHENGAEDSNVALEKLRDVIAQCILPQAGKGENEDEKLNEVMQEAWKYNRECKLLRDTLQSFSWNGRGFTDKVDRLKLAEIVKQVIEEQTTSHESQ
- experiment-description: Kinase profiling PRAK
- Assay type: biochemical
- assay-conditions: 100 micromolar inhibitor concentration; 100 is no change; read-out: residual kinase activity, PRAK

| cpd-smiles | remaining activity at 100 µM |
| --- | --- |
| CC(=O)Nc1nc2cc(C(F)(F)F)ccc2s1 | 87% |
| CC(=O)Nc1nc2ccc(C(F)(F)F)cc2s1 | 111% |
| CC(=O)Nc1nc2cc(F)ccc2s1 | 76% |
| COc1ccc2sc(NC(C)=O)nc2c1 | 71% |
| CC(=O)Nc1nc2ccc(C#N)cc2s1 | 69% |
| CC(=O)Nc1nc2ccc(O)cc2s1 | 47% |

====

- measured-on: p38g MAPK (Homo sapiens, UniProt P53778)
- Sequence (P53778 1-367): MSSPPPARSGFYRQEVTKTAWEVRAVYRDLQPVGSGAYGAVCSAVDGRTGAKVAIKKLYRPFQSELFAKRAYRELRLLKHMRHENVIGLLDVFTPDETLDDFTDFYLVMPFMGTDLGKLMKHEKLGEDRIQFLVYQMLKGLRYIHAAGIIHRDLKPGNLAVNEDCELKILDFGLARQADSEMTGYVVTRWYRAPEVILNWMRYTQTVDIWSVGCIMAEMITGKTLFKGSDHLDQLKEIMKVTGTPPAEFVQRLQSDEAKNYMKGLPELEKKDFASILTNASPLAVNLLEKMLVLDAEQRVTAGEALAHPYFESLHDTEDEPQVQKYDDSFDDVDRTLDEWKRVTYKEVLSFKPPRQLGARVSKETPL
- experiment-description: Kinase profiling p38g MAPK
- Assay type: biochemical
- assay-conditions: 100 micromolar inhibitor concentration; 100 is no change; read-out: residual kinase activity, p38g MAPK
I'd appreciate it if you marked entries Y when remaining activity at 100 µM is lower than 80% and N when it is not.

| cpd-smiles | class-name |
| --- | --- |
| CC(=O)Nc1nc2ccc(O)cc2s1 | N |
| CC(=O)Nc1nc2cc(F)ccc2s1 | Y |
| CC(=O)Nc1nc2cc(C(F)(F)F)ccc2s1 | N |
| CC(=O)Nc1nc2ccc(C(F)(F)F)cc2s1 | N |
| COc1ccc2sc(NC(C)=O)nc2c1 | Y |

====

- measured-on: ULK1 (Homo sapiens, UniProt O75385)
- Sequence (O75385 1-1050): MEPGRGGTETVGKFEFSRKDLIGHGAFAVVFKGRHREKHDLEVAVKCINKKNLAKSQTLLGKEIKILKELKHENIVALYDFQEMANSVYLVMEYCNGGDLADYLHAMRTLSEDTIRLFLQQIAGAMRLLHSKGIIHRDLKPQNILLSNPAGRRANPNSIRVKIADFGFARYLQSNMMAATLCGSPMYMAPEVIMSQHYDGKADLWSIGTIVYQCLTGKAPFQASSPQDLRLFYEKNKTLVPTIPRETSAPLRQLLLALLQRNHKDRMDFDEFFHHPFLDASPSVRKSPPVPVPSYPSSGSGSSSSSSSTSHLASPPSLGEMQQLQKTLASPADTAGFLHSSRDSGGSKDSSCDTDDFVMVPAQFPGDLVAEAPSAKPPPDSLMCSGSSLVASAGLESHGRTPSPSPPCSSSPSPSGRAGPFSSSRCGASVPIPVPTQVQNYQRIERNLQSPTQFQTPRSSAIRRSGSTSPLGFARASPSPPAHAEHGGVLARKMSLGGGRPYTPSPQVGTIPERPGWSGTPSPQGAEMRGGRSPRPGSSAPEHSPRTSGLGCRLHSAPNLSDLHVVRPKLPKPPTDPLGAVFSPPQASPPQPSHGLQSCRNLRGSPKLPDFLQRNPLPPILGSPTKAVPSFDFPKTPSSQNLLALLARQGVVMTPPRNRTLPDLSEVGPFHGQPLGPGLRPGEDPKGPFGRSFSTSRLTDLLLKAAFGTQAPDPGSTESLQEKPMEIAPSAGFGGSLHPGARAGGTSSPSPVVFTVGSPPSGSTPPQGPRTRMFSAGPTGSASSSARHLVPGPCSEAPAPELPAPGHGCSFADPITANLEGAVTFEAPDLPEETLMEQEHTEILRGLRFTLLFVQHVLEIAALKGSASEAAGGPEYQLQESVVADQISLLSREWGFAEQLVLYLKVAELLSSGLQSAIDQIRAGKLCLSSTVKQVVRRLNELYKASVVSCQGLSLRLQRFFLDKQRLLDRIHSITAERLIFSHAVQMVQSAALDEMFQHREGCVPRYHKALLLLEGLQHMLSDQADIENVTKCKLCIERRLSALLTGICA
- experiment-description: Kinase profiling ULK1
- Assay type: biochemical
- assay-conditions: 100 micromolar inhibitor concentration; 100 is no change
- Description: Any value less that 25 is considered to be highly significant inhibition.

| cpd-smiles | measured-on | residual kinase activity, ULK1 |
| --- | --- | --- |
| O=C(Nc1nc2ccc(O)cc2s1)c1ccncc1 | ULK1 (Homo sapiens, UniProt O75385) | 69 |
| CC(=O)Nc1nc2cc(C)ccc2s1 | ULK1 (Homo sapiens, UniProt O75385) | 82 |
| CC(=O)Nc1nc2ccccc2s1 | ULK1 (Homo sapiens, UniProt O75385) | 102 |
| O=C(Nc1nc2ccc(O)cc2s1)c1cccnc1 | ULK1 (Homo sapiens, UniProt O75385) | 78 |
